# Tested on: vancomycin-resistant Enterococcus faecium (VRE, ATCC 700221)
# experimentDescription: Minimum inhibitory concentration (MIC) susceptibility assay, broth microdilution
# Format: cell-based
# cond: Table 3; read-out: VRE MIC
# note: exactly 2 µM is not below, so it is 0.0; use 1.0 for MIC strictly under it

Look over these answered cases.
Oc1c(I)cc(I)c2ccc(CNc3ccccc3)nc12 ... 0.0
CCCCCNCc1ccc2c(Br)cc(Br)c(O)c2n1 ... 0.0
CC(C)Cc1ccc2c(Br)cc(Br)c(O)c2n1 ... 0.0
Oc1c(Br)cc(Br)c2ccc(CNc3cccc(Br)c3)nc12 ... 1.0
CCc1ccc2c(Br)cc(Br)c(O)c2n1 ... 1.0

Record Oc1c(Br)cc(Br)c2ccc(CNc3ccc(F)cc3)nc12 : is its MIC strictly below 2 µM? 1.0

Take the molecule Oc1c(Br)cc(Br)c2ccc(CNc3ccccc3Br)nc12 and say whether its MIC is less than 2 µM. 1.0

Is it true that MIC reported for Oc1c(Br)cc(Br)c2ccc(CNc3cc(Br)ccc3Br)nc12 is less than 2 µM? 1.0

Lab log: compare recorded MIC with 2 µM; is it strictly lower for Oc1c(Br)cc(Br)c2ccc(CCc3ccc(Br)cc3)nc12 ? 0.0

Determine whether this molecule shows MIC lower than 2 µM (ties excluded): CCCc1ccc2c(I)cc(I)c(O)c2n1 1.0

Below 2 µM on MIC? Entry Oc1c(Br)cc(Br)c2ccc(CNc3ccc(I)cc3)nc12 0.0

---

This listing pairs compounds with measured melting point.

N=C(N)c1ccc2c(Br)cc(Br)c(O)c2n1 ... 172 to 174 °C
CC(O)c1ccc2c(Br)cc(Br)c(O)c2n1 (centres unmarked) ... 114 to 116 °C

Requested field: melting point. Item: OCc1ccc2c(Br)cc(Br)c(O)c2n1 131 to 133 °C

So what does the record say about melting point for O=Cc1ccc2c(Br)cc(Br)c(O)c2n1 ? 154 to 156 °C

// query melting point value for entry N#Cc1ccc2c(Br)cc(Br)c(O)c2n1 172 to 174 °C

---

# Tested on: human red blood cells
# experimentDescription: Hemolysis assay
# Type: cell-based
# cond: Table 2, human red blood cells, 1 hour at 37° C.
# Method: Freshly drawn human red blood cells (hRBC with ethylenediaminetetraacetic acid (EDTA) as an anticoagulant) were washed with Tris-buffered saline (0.01M Tris-base, 0.155M sodium chloride (NaCl), pH 7.2) and centrifuged for 5 minutes at 3500 rpm. […] Then 80 μL of the supernatant were transferred to another 96-well plate and the Optical Density (OD) was read at 405 nm. […] The percent of hemolysis was calculated as (OD405 of the compound-OD405 DMSO)/(OD405 Triton X-OD405 buffer).
experimentalEndpoint: % Haemolysis at 200 μM

Some compounds with known % Haemolysis at 200 μM results, for comparison:
Cc1ccc2c(Br)cc(Br)c(O)c2n1 [HQ-1, reference compound] ... ≤1%
CC(=O)NC[C@H]1CN(c2ccc(N3CCOCC3)c(F)c2)C(=O)O1 [Linezolid, reference compound] ... ≤1%
N#CC(C#N)=NNc1cccc(Cl)c1 [CCCP, reference compound] ... 3.5%

Read the next record carefully.
Returns the measured % Haemolysis at 200 μM for the input compound. Input: CN[C@H](CC(C)C)C(=O)N[C@H]1C(=O)N[C@@H](CC(N)=O)C(=O)N[C@H]2C(=O)N[C@H]3C(=O)N[C@H](C(=O)N[C@H](C(=O)O)c4cc(O)cc(O)c4-c4cc3ccc4O)[C@H](O)c3ccc(c(Cl)c3)Oc3cc2cc(c3O[C@@H]2O[C@H](CO)[C@@H](O)[C@H](O)[C@H]2O[C@H]2C[C@](C)(N)[C@H](O)[C@H](C)O2)Oc2ccc(cc2Cl)[C@H]1O [Vancomycin, reference compound] ≤1%

---

# Tested on: human red blood cells
# experimentDescription: Hemolysis assay
# Assay type: cell-based
# cond: Table 3, human red blood cells
# Procedure: Freshly drawn human red blood cells (hRBC with ethylenediaminetetraacetic acid (EDTA) as an anticoagulant) were washed with Tris-buffered saline (0.01M Tris-base, 0.155M sodium chloride (NaCl), pH 7.2) and centrifuged for 5 minutes at 3500 rpm. […] Then 80 μL of the supernatant were transferred to another 96-well plate and the Optical Density (OD) was read at 405 nm. […] The percent of hemolysis was calculated as (OD405 of the compound-OD405 DMSO)/(OD405 Triton X-OD405 buffer).
experimentalEndpoint: % Haemolysis at 200 μM (%)
Give just the numeric value; % need not be written.

Using the record for N#CC(C#N)=NNc1cccc(Cl)c1 [CCCP, reference compound] , report its % Haemolysis at 200 μM. 3.5

Which measured % Haemolysis at 200 μM value corresponds to O=C(O)CN(CCN(CC(=O)O)CC(=O)O)CC(=O)O [EDTA, ethylenediaminetetraacetic acid, reference compound] ? 3.0

---

# System: methicillin-resistant Staphylococcus epidermidis (MRSE; ATCC 35984)
# experimentDescription: Minimum inhibitory concentration (MIC) susceptibility assay, broth microdilution
# Type: cell-based
# cond: Staphylococcus epidermidis; Table 3; read-out: MRSE MIC
Reported values of MIC for individual entries
# value in µM; strip the unit string

CCc1ccc2c(Br)cc(Br)c(O)c2n1 [A-HQ-1] ... 0.39

Quick one: MIC for Oc1c(Br)cc(Br)c2ccc(CNc3cccc(Br)c3)nc12 [RA-HQ-15] ? 0.2

Requested field: MIC. Item: Oc1c(Br)cc(Br)c2ccc(CNc3ccc(I)cc3)nc12 [RA-HQ-14] 0.78

Tell me the measured MIC of Oc1c(I)cc(I)c2ccc(CNc3ccc(Br)cc3)nc12 [RA-HQ-23] , please. 12.5

Requested read-out: MIC. Entry: Oc1c(Br)cc(Br)c2ccc(CCc3ccc(Br)cc3)nc12 [A-HQ-7] 1.17

Reported MIC for Oc1c(Br)cc(Br)c2ccc(CNc3cc(Br)ccc3Br)nc12 [RA-HQ-17] : what is it? 0.59

---

# System: vancomycin-resistant Enterococcus faecium (VRE, ATCC 700221)
# experimentDescription: Minimum inhibitory concentration (MIC) susceptibility assay, broth microdilution
# Assay type: cell-based
# cond: Table 3; read-out: VRE MIC
experimentalEndpoint: MIC (µM)
Output spec: scalar in µM, unitless text.

Example compounds with recorded MIC:
CC(=O)NC[C@H]1CN(c2ccc(N3CCOCC3)c(F)c2)C(=O)O1 [Linezolid, reference compound] ... 3.13
Oc1c(Br)cc(Br)c2ccc(CNc3ccc(Cl)cc3)nc12 ... 0.78

Give the measured MIC of CCCc1ccc2c(Br)cc(Br)c(O)c2n1 . 0.78

Please look up its MIC: Oc1c(I)cc(I)c2ccc(CNc3ccc(Br)cc3)nc12 25

---

# Test system: human red blood cells
# experimentDescription: Hemolysis assay
# Format: cell-based
# cond: Table 3, human red blood cells
Listed here are compounds together with their documented % Haemolysis at 200 μM.

Here's what some known entries look like.
Cc1ccc2c(Br)cc(Br)c(O)c2n1 [HQ-1, reference compound] ... ≤1%
CC(=O)NC[C@H]1CN(c2ccc(N3CCOCC3)c(F)c2)C(=O)O1 [Linezolid, reference compound] ... ≤1%

Could you now consider this next compound?
% Haemolysis at 200 μM for CN[C@H](CC(C)C)C(=O)N[C@H]1C(=O)N[C@@H](CC(N)=O)C(=O)N[C@H]2C(=O)N[C@H]3C(=O)N[C@H](C(=O)N[C@H](C(=O)O)c4cc(O)cc(O)c4-c4cc3ccc4O)[C@H](O)c3ccc(c(Cl)c3)Oc3cc2cc(c3O[C@@H]2O[C@H](CO)[C@@H](O)[C@H](O)[C@H]2O[C@H]2C[C@](C)(N)[C@H](O)[C@H](C)O2)Oc2ccc(cc2Cl)[C@H]1O [Vancomycin, reference compound] ? ≤1%
